Entries below carry reported IC50 on UniProtKB Q13315.
Sequence (Q13315 whole entry): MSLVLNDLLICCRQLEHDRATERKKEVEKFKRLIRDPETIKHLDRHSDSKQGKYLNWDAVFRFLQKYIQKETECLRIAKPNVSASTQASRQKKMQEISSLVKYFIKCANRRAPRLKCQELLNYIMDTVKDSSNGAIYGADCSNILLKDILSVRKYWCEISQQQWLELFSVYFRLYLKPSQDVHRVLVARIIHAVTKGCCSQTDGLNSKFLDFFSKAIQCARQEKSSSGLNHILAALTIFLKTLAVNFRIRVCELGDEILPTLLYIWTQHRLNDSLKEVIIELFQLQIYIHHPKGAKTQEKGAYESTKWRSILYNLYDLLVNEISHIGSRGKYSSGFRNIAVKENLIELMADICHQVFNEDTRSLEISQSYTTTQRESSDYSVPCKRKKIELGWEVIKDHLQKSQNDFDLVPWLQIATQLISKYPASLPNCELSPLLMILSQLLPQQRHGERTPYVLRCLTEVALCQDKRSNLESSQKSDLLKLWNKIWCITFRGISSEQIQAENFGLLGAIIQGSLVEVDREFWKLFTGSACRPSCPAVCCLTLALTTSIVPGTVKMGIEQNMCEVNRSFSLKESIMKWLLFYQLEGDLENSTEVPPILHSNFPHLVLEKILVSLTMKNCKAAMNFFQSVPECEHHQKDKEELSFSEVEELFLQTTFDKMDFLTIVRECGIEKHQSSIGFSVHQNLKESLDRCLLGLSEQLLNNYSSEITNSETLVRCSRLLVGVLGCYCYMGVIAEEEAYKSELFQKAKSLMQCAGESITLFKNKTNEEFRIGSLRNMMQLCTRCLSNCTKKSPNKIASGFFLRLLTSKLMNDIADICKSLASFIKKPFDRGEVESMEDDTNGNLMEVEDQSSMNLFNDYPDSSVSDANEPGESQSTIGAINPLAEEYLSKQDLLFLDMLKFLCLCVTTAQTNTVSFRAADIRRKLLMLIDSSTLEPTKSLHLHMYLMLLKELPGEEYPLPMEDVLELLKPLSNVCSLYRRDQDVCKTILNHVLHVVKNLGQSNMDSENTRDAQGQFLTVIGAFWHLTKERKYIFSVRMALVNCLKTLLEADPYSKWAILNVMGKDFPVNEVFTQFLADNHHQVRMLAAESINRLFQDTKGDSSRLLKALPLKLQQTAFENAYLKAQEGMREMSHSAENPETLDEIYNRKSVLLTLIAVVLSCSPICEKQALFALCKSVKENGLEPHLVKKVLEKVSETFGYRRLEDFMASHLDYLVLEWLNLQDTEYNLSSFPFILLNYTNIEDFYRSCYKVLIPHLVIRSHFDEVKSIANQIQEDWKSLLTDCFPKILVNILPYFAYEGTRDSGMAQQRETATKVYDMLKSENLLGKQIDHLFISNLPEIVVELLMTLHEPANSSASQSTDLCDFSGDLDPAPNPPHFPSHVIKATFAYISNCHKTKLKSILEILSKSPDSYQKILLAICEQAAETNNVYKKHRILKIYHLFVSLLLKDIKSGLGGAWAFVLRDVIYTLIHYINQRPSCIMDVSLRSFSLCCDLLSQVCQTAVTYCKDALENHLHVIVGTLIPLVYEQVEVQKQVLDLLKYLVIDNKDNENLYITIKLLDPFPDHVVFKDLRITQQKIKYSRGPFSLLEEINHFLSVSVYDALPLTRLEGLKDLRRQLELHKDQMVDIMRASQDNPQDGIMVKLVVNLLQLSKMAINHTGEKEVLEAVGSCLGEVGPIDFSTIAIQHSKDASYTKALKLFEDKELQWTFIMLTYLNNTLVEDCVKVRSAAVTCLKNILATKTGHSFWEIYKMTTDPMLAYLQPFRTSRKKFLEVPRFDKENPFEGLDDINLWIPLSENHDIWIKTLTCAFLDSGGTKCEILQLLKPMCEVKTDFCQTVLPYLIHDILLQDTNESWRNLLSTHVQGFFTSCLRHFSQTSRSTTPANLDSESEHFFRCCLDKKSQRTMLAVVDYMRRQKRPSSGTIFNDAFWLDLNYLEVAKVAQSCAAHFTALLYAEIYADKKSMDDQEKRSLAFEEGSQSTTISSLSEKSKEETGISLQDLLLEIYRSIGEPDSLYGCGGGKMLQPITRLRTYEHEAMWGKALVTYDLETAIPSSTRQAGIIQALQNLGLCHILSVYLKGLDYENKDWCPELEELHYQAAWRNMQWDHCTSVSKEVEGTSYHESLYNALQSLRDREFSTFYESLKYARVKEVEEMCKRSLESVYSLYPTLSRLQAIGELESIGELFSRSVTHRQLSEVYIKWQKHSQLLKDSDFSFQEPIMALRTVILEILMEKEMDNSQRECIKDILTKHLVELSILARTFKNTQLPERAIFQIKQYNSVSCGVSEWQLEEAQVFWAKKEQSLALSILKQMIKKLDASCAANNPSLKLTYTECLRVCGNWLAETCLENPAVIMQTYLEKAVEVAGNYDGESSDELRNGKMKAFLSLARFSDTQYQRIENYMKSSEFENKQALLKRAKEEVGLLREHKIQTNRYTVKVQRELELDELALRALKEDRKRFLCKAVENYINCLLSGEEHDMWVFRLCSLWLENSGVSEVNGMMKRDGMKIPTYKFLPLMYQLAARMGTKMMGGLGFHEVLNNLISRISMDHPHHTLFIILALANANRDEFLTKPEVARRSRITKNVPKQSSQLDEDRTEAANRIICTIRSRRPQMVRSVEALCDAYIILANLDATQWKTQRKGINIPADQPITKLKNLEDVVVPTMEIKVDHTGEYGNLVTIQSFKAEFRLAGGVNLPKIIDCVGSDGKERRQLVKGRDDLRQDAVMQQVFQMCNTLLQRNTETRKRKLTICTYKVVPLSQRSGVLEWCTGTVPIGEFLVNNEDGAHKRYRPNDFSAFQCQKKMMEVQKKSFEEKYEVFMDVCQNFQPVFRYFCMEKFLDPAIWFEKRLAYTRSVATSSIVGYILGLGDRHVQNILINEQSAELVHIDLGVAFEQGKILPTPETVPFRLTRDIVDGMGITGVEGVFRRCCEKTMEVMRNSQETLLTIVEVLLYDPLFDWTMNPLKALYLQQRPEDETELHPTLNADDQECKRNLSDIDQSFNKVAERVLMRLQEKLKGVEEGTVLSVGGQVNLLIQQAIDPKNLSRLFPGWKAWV
MEASURED_QUANTITY: IC50 (µM)

compound=CCN(CC)CCS(=O)(=O)c1ccc(-c2cnc(N)c(C(=O)Nc3ccccc3)n2)cc1 measured_quantity=IC50 relation_symbol== test_result=4.82
compound=CNCc1ccc(-c2cc(-c3nc(-c4ccc(S(=O)(=O)C(C)C)cc4)cnc3N)on2)cc1 measured_quantity=IC50 relation_symbol== test_result=0.042
compound=CN(C)CCNS(=O)(=O)c1ccc(-c2cnc(N)c(C(=O)Nc3ccccc3)n2)cc1 measured_quantity=IC50 relation_symbol== test_result=6.87
compound="CC(CN(C)C)S(=O)(=O)c1ccc(-c2cnc(N)c(C(=O)Nc3ccccc3)n2)cc1 (centres unmarked)" measured_quantity=IC50 relation_symbol== test_result=3.86
compound=CN(C)CCC1CCN(CCS(=O)(=O)c2ccc(-c3cnc(N)c(C(=O)Nc4ccccc4)n3)cc2)CC1 measured_quantity=IC50 relation_symbol=> test_result=10
